# System: 323965-272-R-J2-PDC complex spheroid growth, % test/control;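 further: compound exposure lasted 7 days starting three days after spheroid seeding; 100% = DMSO vehicle control wells with viability set relative to vehicle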
# method_notes: Anticancer human tumor 323965-272-R-J2-PDC patient-derived pancreatic carcinoma cell line growth inhibition [Asc]
# assay_conditions: second compound 1 µM; first compound 0.0316 µM; stronger effect = lower value
Answer each item with its documented viability, T/C.

Quick check: viability, T/C of O=C(c1ccc(F)c(F)c1Nc1ccc(I)cc1F)N1CC(O)([C@@H]2CCCCN2)C1 + Cc1c(S(C)(=O)=O)c(-c2cc(F)cc(N3CCN(c4ccc(NS(=O)(=O)c5ccc(NC(CCN6CCC(C(=O)OCCCP(=O)(O)O)CC6)CSc6ccccc6)c(S(=O)(=O)C(F)(F)F)c5)cc4)CC3)c2)c(-c2ccc(Cl)cc2)n1C(C)C ? 61.5%

Can you check O=C(c1cc(Cc2n[nH]c(=O)c3ccccc23)ccc1F)N1CCN(C(=O)C2CC2)CC1 + Cc1c(S(C)(=O)=O)c(-c2cc(F)cc(N3CCN(c4ccc(NS(=O)(=O)c5ccc(NC(CCN6CCC(C(=O)OCCCP(=O)(O)O)CC6)CSc6ccccc6)c(S(=O)(=O)C(F)(F)F)c5)cc4)CC3)c2)c(-c2ccc(Cl)cc2)n1C(C)C next? 85.6%

Would you mind doing C#Cc1c(F)ccc2cc(O)cc(-c3ncc4c(N5CC6CCC(C5)N6)nc(OCC56CCCN5CC(F)C6)nc4c3F)c12 (stereo unspecified) + Cc1c(S(C)(=O)=O)c(-c2cc(F)cc(N3CCN(c4ccc(NS(=O)(=O)c5ccc(NC(CCN6CCC(C(=O)OCCCP(=O)(O)O)CC6)CSc6ccccc6)c(S(=O)(=O)C(F)(F)F)c5)cc4)CC3)c2)c(-c2ccc(Cl)cc2)n1C(C)C as well? 87.1%

Cool, now NC1CCC(NC2CC2c2ccccc2)CC1 (stereo unspecified) + Cc1c(S(C)(=O)=O)c(-c2cc(F)cc(N3CCN(c4ccc(NS(=O)(=O)c5ccc(NC(CCN6CCC(C(=O)OCCCP(=O)(O)O)CC6)CSc6ccccc6)c(S(=O)(=O)C(F)(F)F)c5)cc4)CC3)c2)c(-c2ccc(Cl)cc2)n1C(C)C 96.5%

Queued: Cn1ncnc1[C@H]1c2n[nH]c(=O)c3cc(F)cc(c23)N[C@@H]1c1ccc(F)cc1 + CNC(C)C(=O)NC1CN(S(=O)(=O)c2cccc(S(=O)(=O)N3CCC4CCC(C(=O)NC(c5ccccc5)c5ccccc5)N4C(=O)C(NC(=O)C(C)NC)C3)c2)CCC2CCC(C(=O)NC(c3ccccc3)c3ccccc3)N2C1=O 89.7%

Let us now turn to CNC(C)C(=O)NC1CN(S(=O)(=O)c2cccc(S(=O)(=O)N3CCC4CCC(C(=O)NC(c5ccccc5)c5ccccc5)N4C(=O)C(NC(=O)C(C)NC)C3)c2)CCC2CCC(C(=O)NC(c3ccccc3)c3ccccc3)N2C1=O (stereo unspecified) + Cc1c(S(C)(=O)=O)c(-c2cc(F)cc(N3CCN(c4ccc(NS(=O)(=O)c5ccc(NC(CCN6CCC(C(=O)OCCCP(=O)(O)O)CC6)CSc6ccccc6)c(S(=O)(=O)C(F)(F)F)c5)cc4)CC3)c2)c(-c2ccc(Cl)cc2)n1C(C)C 85.7%

Data origin, for the record: PubChem BioAssay AID1963425
